Origin of the recorded values: PubChem BioAssay AID1159580

- assay-comment: chemical genetic growth profiling, strain panel (AID 1159580);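 also: tested at 20 µM; growth read once vehicle control cultures reached saturation at 30 °C; 1 = growth at the plate median or of vehicle wells; lower values mean less growth of the strain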
- condition-description: S. cerevisiae deletion strains, growth OD, locus YBR231C, strain swc5, hits give low values
In all, about 5,500 compounds went through this assay and about 2,000 (36%) were called active. Another 18% or so got no clear call; they are omitted. The list shows a part of the results.
Entries annotated with measured normalized growth
measured-quantity: normalized growth

• c1ccc([C@H]2CN3CCSC3=N2)cc1 = 1
• CO[C@H]1C[C@H](O[C@H]2[C@H](C)[C@@H](OC3O[C@H](C)C[C@H](N(C)C)[C@H]3OC(C)=O)[C@@H](C)C[C@]3(CO3)C(=O)[C@H](C)[C@@H](OC(C)=O)[C@@H](C)[C@@H](C)OC(=O)[C@@H]2C)O[C@@H](C)[C@@H]1OC(C)=O (stereo not given in full) = 0.996
• O=C(CCBr)N1CCN(C(=O)CCBr)CC1 = 1.02
• COc1cc2c(cc1O)CCNC2C (stereo not given) = 0.984
• CCCCCCCCCCCCCCCCCCOCC(O)CO (stereo not given) = 0.981
• NCCc1c[nH]c2ccccc12 = 0.962
• CC(=O)OCC(=O)[C@@]12OC3(CCCC3)O[C@@H]1CC1C3CCC4=CC(=O)C=C[C@]4(C)[C@@]3(F)[C@@H](O)C[C@@]12C (stereo not given in full) = 1.02
• CNC(Cc1c[nH]c2ccccc12)C(=O)O (stereo not given) = 1
• CC1=NN(c2ccccc2)C(=O)C1 = 0.979
• CC(=O)N[C@@H](Cc1c[nH]c2ccccc12)C(=O)O = 0.981
